Reported TGI values for a set of molecules
- Tested on: OVCAR-3 ovarian
- experiment: NCI tumour cell line growth inhibition, 48 h
recordedEndpoint: TGI (µM)

molecule	assaySystem	valueQualifier	measuredNumber
C=C1CC2(CC(c3ccccc3Cl)OC(c3ccccc3Cl)C2)OC1=O (stereo unspecified)	OVCAR-3 ovarian	=	5.96
CC/C=C\C[C@H](F)C/C=C1/C(=O)C=C[C@@H]1C/C=C\CCCC(=O)OC	OVCAR-3 ovarian	=	6.9
COc1ccc(/C=C2/CSCC3=C2NC(=S)NC3c2ccc(OC)c(OC)c2OC)c(OC)c1OC (stereo unspecified)	OVCAR-3 ovarian	>	100
C=CC(O)(CBr)CCC(Br)C(=C)C (stereo unspecified)	OVCAR-3 ovarian	>	10
CC(C)C12Cc3c(ccc4ccccc34)OC1(C)Oc1ccc3ccccc3c1C2 (stereo unspecified)	OVCAR-3 ovarian	>	100
c1cc(-c2ccc(-c3ccc(-c4ccc(-c5ccncc5)o4)cc3)o2)ccn1	OVCAR-3 ovarian	=	63.8
Cc1c[n+]2c3ccccc3c3ccccc3c2s1	OVCAR-3 ovarian	=	12.9
COc1cc2c(c(OC)c1OC)-c1ccc(SC)c(=O)cc1C(CC(=O)Oc1cccc([N+](=O)[O-])c1)C2 (stereo unspecified)	OVCAR-3 ovarian	=	0.94
CCOC(=O)C(=O)Nc1nc2c(OCC)cccc2s1	OVCAR-3 ovarian	>	100
CCN1CCC(Nc2ccnc3cc(Cl)ccc23)CC1	OVCAR-3 ovarian	>	100
CCCCCOCC(O)CO (stereo unspecified)	OVCAR-3 ovarian	>	100

###

- System: SF-295 CNS
- experiment: NCI tumour cell line growth inhibition, 48 h
recordedEndpoint: TGI

compound	result
O=[N+]([O-])C(/C=C(\Cl)[N+](=O)[O-])=C1Nc2ccccc2N1	> 100 µM
CC(C)N1CCN(c2ccncc2S(=O)(=O)N2CCCCC2)CC1	> 100 µM
Clc1cc2nn(C3CCCCO3)nc2cc1Cl (stereo unspecified)	> 100 µM
CCCc1n(Cc2ccc3ccccc3c2)cc[n+]1Cc1ccc2ccccc2c1	3.34 µM
Clc1cccc(-c2sc(-c3ccsc3)cc2Cc2ccsc2)c1	> 10 µM
N#Cc1c(NCc2ccccc2)nc(NCc2ccccc2)c(C#N)c1-c1ccc(O)cc1	> 100 µM
NNC(=O)CC(=O)Nc1cccc(Cl)c1	> 100 µM
N#CC(C(=O)C(=O)Nc1ccccc1)c1ccccc1 (stereo unspecified)	> 100 µM
CN1CN(C2OC(CO)C(O)C2O)c2nc(N)[nH]c(=O)c21 (stereo unspecified)	> 100 µM
CSC1(C)C(=O)Nc2c(OCc3ccccc3)cc([N+](=O)[O-])cc21 (stereo unspecified)	> 100 µM
CC(C)C12Cc3c(ccc4ccccc34)OC1(C)Oc1ccc3ccccc3c1C2 (stereo unspecified)	> 100 µM

###

- Test system: A549 NSCLC
- experiment: NCI tumour cell line growth inhibition, 48 h
Known TGI of a selection of compounds
recordedEndpoint: TGI

compound	result
COc1cc(Oc2c(C)c(Cl)c(OC)c(Cl)c2OC)c2c(c1Cl)COC2=O	> 100 µM
CC1CN=C(NS(=O)(=O)c2cc(C(=O)Nc3ccc(Cl)cc3)c(Cl)cc2S)NN1 (stereo not given)	> 100 µM
N#CC1(C#N)NC(c2ccccc2)C(C#N)(C#N)NC1c1ccccc1 (stereo not given)	> 100 µM
O=C(CCl)NCCNc1nccc(Nc2ccc(S(=O)(=O)Nc3ccccn3)cc2)n1	13 µM
CCCCCCCCCCCC(=O)OC[C@H](C[As](=O)(O)O)OC(=O)CCCCCCCCCCC	20.5 µM

###

// values below are reported TGI
- Test system: IGROV1 ovarian
- experiment: NCI tumour cell line growth inhibition, 48 h
recordedEndpoint: TGI

compound	assaySystem	result
O=C1C(=C(C(F)(F)Cl)C(F)(F)Cl)C2CCC1C2 (centres undefined)	IGROV1 ovarian	3.62 µM
COc1cc(C)c(/C=C2/N=C(c3ccccc3)OC2=O)c([N+](=O)[O-])c1OC	IGROV1 ovarian	> 100 µM
COC1C(O)CC(OC2CC(OC3CC(O[C@@H]4C(=O)c5c(cc6cc(OC7CC(OC8CC(O)C(O)C(C)O8)C(O)C(C)O7)c(C)c(O)c6c5O)CC4[C@H](OC)C(=O)O)OC(C)C3O)OC(C)C2O)OC1C (some centres undefined)	IGROV1 ovarian	> 33.3 µM
S=C(N/N=C(\c1ccccc1)c1ccccn1)NC1CCCCC1	IGROV1 ovarian	> 100 µM

###

Quick reference: TGI of the listed items.
- System: NCI-H23 lung
- experiment: NCI tumour cell line growth inhibition, 48 h
recordedEndpoint: TGI

compound	assaySystem	result
CCCCCCCCCCCCOP(=O)(O)OP(=O)(O)OCC1OC(n2ccc(N)nc2=O)CC1O (stereo unspecified)	NCI-H23 lung	> 100 µM
O=C(O)C[C@@H](Cl)[C@H](NC(=O)OCc1ccccc1)C(=O)O	NCI-H23 lung	> 100 µM
CC(=O)O[C@H]([C@H](OC(C)=O)[C@H](C)OC(C)=O)[C@@H](/C=C/[C@@H]1CC=CC(=O)O1)OC(C)=O	NCI-H23 lung	> 100 µM
Cc1c(C)c(C)c(Cn2[nH]c(=O)n(C)c2=O)c(C)c1C	NCI-H23 lung	> 100 µM
COc1cc(C2CC(c3cccc(Nc4ccnc5cc(Cl)ccc45)c3)=NN2c2ccc(Cl)cc2)cc(OC)c1OC (stereo unspecified)	NCI-H23 lung	> 100 µM
CN(C)CCCN(CCC1CCCCC1)CCC1CCCCC1	NCI-H23 lung	17.9 µM

###

# maps each entry to its TGI
- Test system: NCI-H23 lung
- experiment: NCI tumour cell line growth inhibition, 48 h
recordedEndpoint: TGI

smilesRepr	recordedEndpoint	result
O=c1oc2ccc(I)cc2c(=O)n1-c1ccc(F)cc1F	TGI	7.94 µM
CC(=O)Nc1cc2cc(N)ccc2oc1=O	TGI	> 100 µM
CCOC(=O)C(=O)Nc1nc2c(OCC)cccc2s1	TGI	> 100 µM
COc1cc2c3cc1Oc1c(OC)c(OC)cc4c1C(=NCC4)Cc1ccc(cc1)Oc1cc(ccc1O)C[C@H]3N(C)CC2	TGI	44 µM
COc1cc(/C=C(\NC(=O)c2ccccc2)c2nc3ccc4c(c3[nH]2)C(=O)c2ccccc2C4=O)cc(OC)c1OC	TGI	> 100 µM
CCOC(=O)NN(C(=O)OCC)C(C(=O)C1=CCCCC1)N(NC(=O)OCC)C(=O)OCC	TGI	> 100 µM
COc1ccc(OC)c(NCC(=O)Nn2cnc3ccc(S(=O)(=O)Nc4cc(OC)ccc4OC)cc3c2=O)c1	TGI	> 100 µM
Nc1c(C(=O)Nc2ccccc2)sc2nc3c(cc12)CCCCC3	TGI	97.3 µM
COC(=O)/C=C\C(C#N)(C#N)N=Cc1cccc(OC)c1	TGI	16.4 µM
COc1cc(C)c(/C=C2/N=C(c3ccccc3)OC2=O)c([N+](=O)[O-])c1OC	TGI	> 100 µM

###

Measured TGI accompanies every entry in the list below.
- Test system: HCT-116 colon
- experiment: NCI tumour cell line growth inhibition, 48 h

compound	assaySystem	TGI
CC1(C)S[C@@H]2[C@H](N3C(=O)c4ccccc4C3=O)CN2[C@H]1NC(=O)N[C@@H]1N2C[C@@H](N3C(=O)c4ccccc4C3=O)[C@H]2SC1(C)C	HCT-116 colon	> 100 µM
CC1CN=C(NS(=O)(=O)c2cc(C(=O)Nc3ccc(Cl)cc3)c(Cl)cc2S)NN1 (stereo unspecified)	HCT-116 colon	> 100 µM
O=C(Nc1ccc(Cl)cc1C(F)(F)F)C(=O)C1CCCS1(=O)=O (stereo unspecified)	HCT-116 colon	> 100 µM
COC(=O)c1ccccc1N(C(=O)c1ccccc1)c1ccccc1C	HCT-116 colon	> 100 µM
Cc1c[n+]2c3ccccc3c3ccccc3c2s1	HCT-116 colon	> 70.1 µM
O=C1CSC(c2c[nH]c3ccccc23)N1c1ccc(Cl)cc1 (stereo unspecified)	HCT-116 colon	> 100 µM
C=CCN1/C(=C(\C#N)c2nc3ccccc3[nH]2)Sc2c1nc[nH]c2=O	HCT-116 colon	> 100 µM
CC(CC(=O)N1C(=O)C(C)(C)[C@@H](O)[C@H]1CC(C)C(Cl)(Cl)Cl)C(Cl)(Cl)Cl (stereo partly specified)	HCT-116 colon	> 100 µM
Cc1ccc(C2(c3ccc(Cl)cc3)c3ccccc3C3=NCCN32)cc1 (stereo unspecified)	HCT-116 colon	10.1 µM
CC(=O)Nc1cc2cc(N)ccc2oc1=O	HCT-116 colon	> 100 µM
CCCCCCCCCCCCOP(=O)(O)OP(=O)(O)OCC1OC(n2ccc(N)nc2=O)CC1O (stereo unspecified)	HCT-116 colon	> 100 µM
C=C1C(=O)O[C@H]2[C@H]1CC/C(COC(=O)NCc1c[nH]c3ccccc13)=C\CC[C@@]1(C)O[C@@H]21	HCT-116 colon	3.3 µM
CCCCn1c(CSc2ccc(Cl)cc2)c(C(=O)OCC)c2cc(OC)c(Br)cc21	HCT-116 colon	> 100 µM
CNC(=O)NCNC(=O)NC	HCT-116 colon	> 100 µM
O=c1oc2ccc(I)cc2c(=O)n1-c1ccc(F)cc1F	HCT-116 colon	5.2 µM
CCOC(=O)CC(c1ccccc1)C(C)(C(=O)OCC)C(=O)OCC (stereo unspecified)	HCT-116 colon	> 100 µM
Cc1cc(Cl)nc2nc(Cl)c(N)cc12	HCT-116 colon	5.92 µM
CCOC(=O)CC1COc2ccc3c(c21)OCO3 (stereo unspecified)	HCT-116 colon	> 100 µM
CSC1(C)C(=O)Nc2c(OCc3ccccc3)cc([N+](=O)[O-])cc21 (stereo unspecified)	HCT-116 colon	> 100 µM
COc1cc2c(c(OC)c1OC)-c1ccc(SC)c(=O)cc1C(CC(=O)Oc1cccc([N+](=O)[O-])c1)C2 (stereo unspecified)	HCT-116 colon	3.72 µM
COc1ccc(C2=NN(c3ccccc3)C[N+](c3ccc(C)cc3)=N2)cc1	HCT-116 colon	> 100 µM
